The measurements presented in this section are drawn from patent US8450527B2.

Please go through the items and note down their IC50.
- Measurement target: visual cycle isomerase (Bos taurus, UniProt Q28175)
- Construct: Bovine Retinal Pigment Epithelium (RPE) microsome membranes were the source of a visual cycle isomerase; from tissue; host or cells: bovine retinal pigment epithelium microsome membranes; CRALBP made in E. coli
- Sequence (Q28175 2-533 limits assumed): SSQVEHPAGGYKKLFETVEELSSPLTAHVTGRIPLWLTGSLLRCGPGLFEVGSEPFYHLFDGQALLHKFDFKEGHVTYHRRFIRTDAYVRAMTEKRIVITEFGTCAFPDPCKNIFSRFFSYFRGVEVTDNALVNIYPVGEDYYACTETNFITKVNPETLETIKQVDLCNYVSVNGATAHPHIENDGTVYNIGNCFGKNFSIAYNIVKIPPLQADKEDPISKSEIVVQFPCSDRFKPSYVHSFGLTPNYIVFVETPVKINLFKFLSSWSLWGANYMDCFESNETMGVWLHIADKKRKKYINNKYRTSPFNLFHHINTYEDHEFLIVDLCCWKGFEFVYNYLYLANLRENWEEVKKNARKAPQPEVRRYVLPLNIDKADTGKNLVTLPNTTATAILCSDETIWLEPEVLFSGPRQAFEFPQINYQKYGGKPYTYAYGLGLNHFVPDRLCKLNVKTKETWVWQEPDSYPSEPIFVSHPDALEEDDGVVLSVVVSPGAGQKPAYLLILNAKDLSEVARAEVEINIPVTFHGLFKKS
- Protocol details: In vitro isomerase inhibition assay, bovine RPE microsome membranes
- Format: biochemical
- Recorded conditions: inhibition of 11-cis retinol formation; values given as ranges

Compound | Measurement target | IC50
NCCCc1cccc(CCc2ccc3ccccc3c2)c1 | visual cycle isomerase (Bos taurus, UniProt Q28175) | 10 to 100 µM

Please state IC50 for every compound in the list that follows.
1. NCCOc1cccc(CCCC2CCCC2)c1
2. Cc1cccc(C)c1CCc1cccc(CCCN)c1

≤ 1 µM
1 to 10 µM
